conditions: acidic group
Classification by pKa follows these ranges: bin A: < 4; bin B: ≥ 4 and < 7; bin C: ≥ 7

Some solved entries appear below for comparison.
Molecule	Assigned Label
O=C(O)c1cc2ccccc2s1	bin A
Cc1ccc(C(=O)C(=O)O)cc1C	bin A
Oc1nc2ccccc2c[nH+]1	bin A
CC(C)CC(N)C(N)=O (stereo not given)	bin C
[O-]c1cc(O)c2ccccc2[nH+]1	bin B

For this molecule, which bin applies? CC(O)C(C(=O)O)c1ccc(C2CCCCC2)cc1 (stereo not given)
bin B

Next up: "O=S1(=O)Cc2cc(Br)ccc2N=CN1"
bin C

And "CNC(=O)c1ncnc2nc[nH]c12" ?
bin C

Also "O=C(O)[C@@H]1O[C@H](Oc2ccc3[nH+]cccc3c2)[C@@H](O)[C@H](O)[C@H]1O" ?
bin A

Same read-out for "O=C1CCCC(=O)C1" ?
bin B

How about this molecule: "O=C(O)c1cccc(I)c1"
bin A

---

conditions: acidic group
pKa of 3 or higher: met. Under 3: not met.

Molecular String	Assigned Label
CCCOC(=O)c1ccc(O)cc1	met
Cc1ccc(OCC(=O)O)cc1	met
N#CC(C#N)=C(C#N)Nc1ccc(C(=O)O)cc1	met
O=C1C[C@H](C(=O)O)[C@@H](C(=O)[O-])O1	met
C[n+]1cccc(S)c1	not met
C=C[C@]1(O)C[NH+]2CC[C@H]1C[C@H]2[C@H](O)c1cc(O)[nH+]c2ccccc12	not met

In the following, a different compound is considered.
State whether the measured pKa reaches 3, counting equality as reaching it, for "C=C[C@@H]1CNC(=S)O1"
met

---

# pKa values compiled below
conditions: acidic group
Output spec: single numeric token, no unit.

These recorded examples may help you get a feel for the data.
Molecular String	Measurement Label	Meas Value
O=C(Oc1cccc([N+](=O)[O-])c1)C1c2ccccc2-c2ccccc21	pKa	9.84
Cc1cc(/N=N/c2nc3ccccc3s2)c2cccnc2c1O	pKa	7.5
CN(C)c1nc2ncncc2[nH]1	pKa	9.73
Cc1cc(C(=O)O)ccc1O	pKa	4.68
CC(=O)c1cccc(O)c1	pKa	9.12

Request the reported pKa associated with "CCCCCCCCc1c(-c2ccccc2)n[nH]c1O"
10.2

Input "O=C(O)c1csc(Cl)n1"
3.3

---

settings: acidic group
Measurement Label: pKa
// keep it numeric: no unit symbol after the value

Study these solved cases before continuing.
Compound	pKa
Nc1ccc(S(=O)(=O)Nc2nccc(N)n2)cc1	9.44
COc1ccc(NC(C)=S)cc1	12
O=C(O)/C=C\SC1CCCCC1	4.95
CCOC(=O)COc1ccc(C(=O)c2ccc(O)c(C[NH3+])c2)c(Cl)c1Cl	6.38

Requested read-out: pKa. Entry: O=P([O-])(O)C([NH2+]Cc1ccncc1)c1ccccc1O (stereo not given)
5.2

And for "CCOC(=S)NC(=O)c1ccccc1" ?
7.46

"O=Cc1ncccc1O" , same question.
6.95

Lookup "NC(=O)[C@H](N)[C@H](O)C(=O)O"
2.31

Now try O=C1COC(=O)C1Cl (stereo not given) .
2.13

Check "O/N=C1\CCCCC\C1=N/O" too.
10.7

Lookup "O=C([O-])C1(C(=O)O)CCCC1"
6.08

How about "O=C(O)c1cccs1" ?
3.46

---

details: basic group
Measurement Label: pKa

Consider the reported pKa for these compounds:
Molecular String	Meas Value
Nc1ccccc1F	2.96
C1CCCNCC1	11
CCC[NH2+]CCN	7.54
CN(C)CCC[NH+](C)C	7.73
Cc1c[n+](C)c([O-])nc1N	4.76

Fill blank: measured pKa of the compound "CCN(C)C" is ____.
10.1

Please give the result for "C=CCc1c(O)n[nH]c1C" too.
2.8

Entry "COc1ccc2c3c1O[C@H]1CCC[C@H]4[C@@H]([C@H]2O)N(C)CC[C@]314" please
7.71

---

conditions: basic group
The compounds listed here are annotated with their pKa.
Could you keep your reply to the number by itself?

Molecular String	Measurement Label	Meas Value
Cc1cnc2c(ccc3c(C)ccnc32)c1C	pKa	5.99
Nc1cc(-c2ccccc2)nc2ccccc12	pKa	8.2
[O-]c1cccnc1	pKa	8.6
CCN(CC)CCO	pKa	9.84
CN(C)c1ccc([N+](C)(C)C)cc1	pKa	2.64

GET /values?readout=pKa&item= "CNCC[NH2+]C"
7.29

Consider next the compound "CCNc1cccc2ccccc12" in the same way.
4.19

Do the same for "c1ccc(Oc2cccnc2)cc1" please
4.24

Would you mind doing "Cc1n[nH]cc1Cl" as well?
1.4

---

settings: basic group
pKa overview
Lab note: jot the number down without any unit.

# count of solved cases: 2
Molecular String	pKa
CCN(CC)Cc1c(C)cccc1O	8.65
CN(C)c1ccc(/N=N/c2ccccn2)cc1	4.5

Can you share its pKa? I mean this molecule: "N#CC(C#N)=NNc1ccccc1Br"
-0.8

Do the same for "O=[N+]([O-])c1cnc([O-])[nH+]c1[O-]" please
5.42

Would you mind doing "N[C@H](C(=O)[O-])[C@H](O)C(=O)[O-]" as well?
8.75

Param item: "CCC1=NCCC1"
7.91

And for "O=C(CN1CCOCC1)c1ccccc1" ?
5.97

Can you check "CNC" next?
11

Again, but for "C1=C(c2ccco2)C2CCN1CC2"
8.92

Further, for "CCOC(=O)c1ccc(CCN)cc1" ?
9.58

Next molecule: "OCCNCCO"
9.04

Same lookup for "CN(C)/C=N/c1ccccc1Cl" , please.
6.85

Please do the same for "C[Si](C)(C)c1cccc(N)c1" as well.
4.64

Please do the same for "CC(C)N(C(C)C)C(C)C" as well.
11.9

How about this molecule: "Nc1ccc2nnc3ccccc3c2c1"
6.68

Subsequent entry: "CCN(CC)Cc1cc(Cl)cc(Cl)c1[O-]"
11.6

---

details: basic group
Here, each record is paired with measured pKa data.
// print number alone

Compound	pKa
CN(C)CCC(=O)C(C)(C)C	9.49
CN(C)c1ccc(/N=N/c2ccccc2)cc1	2.85
CC(=O)OCC1CC2CCN1CC2 (centres undefined)	9.88
Cc1cnc2c(O)cccc2c1C	5.8

Recorded pKa for "CC(C)Nc1ccccc1" , please?
5.67

Follow-up item: "NCc1cccc(S(N)(=O)=O)c1"
8.55

# iterate: "CNCCC(=O)c1ccccc1"
9

Then this compound: "CC1=NCCCCN1"
12.7

---

A collection of compounds and their measured pKa
conditions: basic group
Please reply with the number alone, leaving off any unit.

Compound	pKa
COc1cccc([O-])n1	9.77
Nc1cnnc2ccccc12	6.84
NCC(=O)c1ccc(O)cc1	8.05
CCOC(=O)C1(c2ccccc2)CCN(CC)CC1	9.03
OCc1cc(-c2ccccc2)nnc1NCC[NH+]1CCOCC1	3.81
Cc1ccccc1/C(=N/CCCN(C)C)c1ccc2ccccc2c1	8.9
Nc1ccc(S(=O)(=O)Nc2cccnc2)cc1	3
Clc1ccnc2c1ccc1c(Cl)ccnc12	3.03
CNc1cnc2ccccc2n1	4.1
CC(C)(C)NNC(C)(C)C	8.31

Give its pKa value. Item: CC(C)NCC(O)c1cccc(N)c1 (stereo not given)
9.6

Queued: "COC(=O)c1ccccc1N(C)C"
5.55

Item: "CC1=NCCc2c1[nH]c1ccccc21"
8.99

Record: NC(Cc1c[nH]c(=S)[nH]1)C(=O)[O-] (stereo not given)
8.47

Next: "C=C(C)[C@H]1CN[C@H](C(=O)[O-])[C@H]1CC(=O)OC"
9.52

---

Measured pKa by item
conditions: basic group

Give its pKa value. Item: "CC(C)N(C)/C=N/c1ccc(-c2c[nH]cn2)cc1"
8.72

Follow-up item: "Cc1nn(-c2ccccc2)c(C(=O)[O-])c1C(=O)[O-]"
5.89

And then "Cc1ccc(S(=O)(=O)N(C)CCC(=N)N)cc1" , what is it?
11.5

---

details: acidic group
Assign label 1 whenever pKa does not fall below 8; assign label 0 whenever it does.

Field: example entries. Status: answers known.
Compound	Assigned Label
CC(C)CS(=O)O	label 0
CCCOc1ccccc1C(=O)O	label 0
CC(C)Oc1cccc(C(=O)O)c1	label 0

Could you please find out whether "Nc1cc[nH+]c2c1ncn2CCOCP(=O)([O-])O" has pKa that meets 8 or exceeds it?
label 0

Do the same for "Cc1cc(C[NH3+])c(O)c(C[NH3+])c1" please
label 0

Follow-up entry: "Oc1ccccc1-c1ccccc1"
label 1

What do we get for O=C([O-])C(CO)NCc1ccccc1O (configuration not stated) ?
label 1

Same question for "CSc1ncc2[nH]cnc2n1" please.
label 1

"N[n+]1ccccc1O" , same question.
label 0

Consider next the compound "N#C/C(=N\O)C(N)=O" in the same way.
label 0

Same read-out for "Oc1cc[nH+]c2cccnc12" ?
label 0

Field entry: "Cc1cnc(NS(=O)(=O)c2ccc(N)cc2)nc1C"
label 0

Another: CC(C)C([NH3+])C(=O)O (configuration not stated)
label 0

Again, but for O=C(O)CC1[NH2+]Nc2ccccc21 (configuration not stated)
label 0

Check "O=c1[nH]c(=S)[nH]c2nc[nH]c12" too.
label 0

Repeat with "O=C(O)[C@@H]1CCCC[C@@H]1O"
label 0

Moving on to "Cc1cc(/N=N/c2nc3ccccc3s2)c(O)c2ncccc12"
label 1

Entry "Cc1cccc(NS(=O)(=O)c2ccccc2)c1" please
label 1

Cool, now "CN1Cc2[nH]cnc2N(C)C1=O"
label 1

Also check "c1ncc2cn[nH]c2n1"
label 1

How about this compound: O=S(Cc1ccccc1)c1ncn[nH]1 (configuration not stated)
label 0

Also check "CCNC(O)=S"
label 0

Data credit: the pKa sets of Baltruschat and Czodrowski (2020)
